system: TK-10; assay: NCI tumour cell line growth inhibition, 48 h
Activity calls are given as the source filed them. Cut-off read from the data, not from the text of the source: active = GI50 up to about 1.1 µM and inactive = higher.
EXPERIMENTAL ENDPOINT: GI50

* C=C(Cl)C(Cl)(CBr)CCCC(C)(C)Cl (configuration not stated) | 2.26 µM (inactive)
* COC(=O)CCC1=NCC(C)(C)O1 | > 10 µM (inactive)
* O=c1[nH]c(=O)n(C2CC(O)C(CO)O2)cc1OCc1ccccc1 (configuration not stated) | > 100 µM (inactive)
* C=CCN1C(=O)/C(=C/c2cccs2)N=C1SC/C=C/C | 92 µM (inactive)
* C=C(Br)C(Br)(CCl)CCC(Cl)C(C)C.C=C(Cl)C(Br)(CCl)CCC(Cl)C(C)C (configuration not stated) | 2.14 µM (inactive)
* OC(CC(CC(O)(C(F)(F)F)C(F)(F)F)=NN=C(CC(O)(C(F)(F)F)C(F)(F)F)CC(O)(C(F)(F)F)C(F)(F)F)(C(F)(F)F)C(F)(F)F | > 10 µM (inactive)

What value of measured GI50 is listed for CN1CC(C(=O)C2C(=O)c3ccccc3C2=O)C(=O)C(=O)C(C(=O)C2C(=O)c3ccccc3C2=O)C1 (configuration not stated) ?
> 100 µM (inactive)

What value of measured GI50 is listed for O=c1c2c3c(sc2nc(CN2CCNCC2)n1-c1ccccc1)CCCC3 ?
> 100 µM (inactive)

What value of measured GI50 is listed for N#CC1(CCCI)CCCC1 ?
41.9 µM (inactive)

What value of measured GI50 is listed for COc1cc(OC)c(/C=C\c2ccnc3ccccc23)c(OC)c1 ?
4.61 µM (inactive)

What value of measured GI50 is listed for CC(C)O/C=C1\C(=O)C2(SCCS2)[C@H]2CCCC[C@@H]12 ?
43 µM (inactive)

What value of measured GI50 is listed for COP(=O)(OC)[C@@](O)(c1ccccc1)[C@@H](O)[C@H](O)c1ccccc1 ?
> 100 µM (inactive)

What value of measured GI50 is listed for CN1CCN(c2ccc([N+](=O)[O-])c3no[n+]([O-])c23)CC1 ?
0.792 µM (active)

What value of measured GI50 is listed for O=C(NC(COC(=O)C(Cc1ccccc1)NC(=O)c1ccccc1)Cc1ccccc1)c1ccccc1 (configuration not stated) ?
> 50 µM (inactive)

What value of measured GI50 is listed for N#Cc1ccc(Sc2nc3ccccc3[nH]2)cc1 ?
> 100 µM (inactive)

What value of measured GI50 is listed for CCCCCCCCCCCCCC(=O)CBr ?
15.8 µM (inactive)

What value of measured GI50 is listed for COC(=O)[C@@H]1CSC(=S)N1C(=O)C[C@H]1CC=CC[C@H]1CC(=O)Sc1ccccc1 ?
> 10 µM (inactive)

What value of measured GI50 is listed for Cc1ccc(Cl)c2[nH]c(-c3ccccc3)cc(=O)c12 ?
47.2 µM (inactive)
